Cited source for all entries: paper PMC7133791

target: M. tuberculosis topoI (MttopoI) (Mycobacterium tuberculosis)
Sequence (P9WG49 whole entry): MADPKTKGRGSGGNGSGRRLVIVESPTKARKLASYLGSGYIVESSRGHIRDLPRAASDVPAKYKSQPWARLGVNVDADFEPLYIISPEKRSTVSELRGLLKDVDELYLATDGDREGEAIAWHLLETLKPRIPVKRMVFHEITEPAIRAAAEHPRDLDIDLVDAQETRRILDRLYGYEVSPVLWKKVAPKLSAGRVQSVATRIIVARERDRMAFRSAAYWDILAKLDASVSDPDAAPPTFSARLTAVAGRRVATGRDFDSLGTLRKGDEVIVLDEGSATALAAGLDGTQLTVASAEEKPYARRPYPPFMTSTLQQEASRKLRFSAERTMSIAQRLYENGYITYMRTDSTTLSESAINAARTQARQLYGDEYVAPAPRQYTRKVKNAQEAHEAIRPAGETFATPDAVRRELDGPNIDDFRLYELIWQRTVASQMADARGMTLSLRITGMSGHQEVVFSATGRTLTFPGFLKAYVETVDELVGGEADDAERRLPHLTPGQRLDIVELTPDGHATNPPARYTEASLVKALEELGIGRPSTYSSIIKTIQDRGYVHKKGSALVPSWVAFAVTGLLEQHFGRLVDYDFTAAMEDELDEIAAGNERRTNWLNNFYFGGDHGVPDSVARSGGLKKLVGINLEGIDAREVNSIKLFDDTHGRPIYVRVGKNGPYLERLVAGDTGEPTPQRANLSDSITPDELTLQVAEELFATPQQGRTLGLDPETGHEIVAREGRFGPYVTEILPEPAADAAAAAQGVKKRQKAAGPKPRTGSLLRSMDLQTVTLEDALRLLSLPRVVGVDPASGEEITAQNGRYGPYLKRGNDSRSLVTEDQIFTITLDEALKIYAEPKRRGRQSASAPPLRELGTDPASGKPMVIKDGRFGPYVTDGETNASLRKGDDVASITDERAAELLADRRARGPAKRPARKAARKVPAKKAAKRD
pIC50: −log10 of the molar value.
quantity kind: pIC50

pIC50 for O=C(Nc1ccc(Sc2ccc(N=Nc3c(O)c(S(=O)(=O)O)cc4cc(S(=O)(=O)O)ccc34)cc2)cc1)c1ccc(N=Nc2c(O)ccc3c(S(=O)(=O)O)cc(S(=O)(=O)O)cc23)cc1 is ~5.52
